Entry source: patent US20070128217A1

tested on: antibodies in sera from SARS patients (sera 1a, 1b, 2, 6, 37, 62, London, SARS-yellow, SARS-green); assay type: binding, human
endpoint: Binding of serum 2 to looped/cyclic peptides of protein X5 of SARS-CoV Urbani

In the examples that follow, each entry is paired with its recorded Binding of serum 2 to looped/cyclic peptides of protein X5 of SARS-CoV Urbani.
INSERT INTO assay_data (primarysequence, measvalue) VALUES
  ('HRWHTMVQTCTPNVT', 0.5),
  ('MCLKILVRYNTRGNT', 0.5),
  ('LGKVLPFHRWHTMVQ', 0.2),
  ('ILVRYNTRGNTYSTA', 0.6);

Which Binding of serum 2 to looped/cyclic peptides of protein X5 of SARS-CoV Urbani value is on record for `STAWLCALGKVLPFH` ?
0.6

Input `LVRYNTRGNTYSTAW`
0.4

Input `VRYNTRGNTYSTAWL`
0.4

---

Entries and their Binding of antibody 03-018 to looped/cyclic peptides of the N protein of SARS-CoV Urbani
system: recombinant human anti-SARS-CoV antibody 03-018; format: binding; design: unit not given here
# respond with the number and nothing more

In the examples that follow, each entry is paired with its recorded Binding of antibody 03-018 to looped/cyclic peptides of the N protein of SARS-CoV Urbani.
INSERT INTO measurements (primarysequence, assayedsystem, measvalue) VALUES
  ('FSRQLQNSMSGASAD', 'recombinant human anti-SARS-CoV antibody 03-018', 0.2),
  ('TVLQLPQGTTLPKGF', 'recombinant human anti-SARS-CoV antibody 03-018', 0.3);

Which Binding of antibody 03-018 to looped/cyclic peptides of the N protein of SARS-CoV Urbani value is on record for `FGDQDLIRQGTDYKH` ?
0.2

Input `RQKKQPTVTLLPAAD`
0.2

Input `LQLPQGTTLPKGFYA`
0.2

Input `RQGTDYKHWPQIAQF`
0.2

Input `EGIVWVATEGALNTP`
0.2

---

test system: antibodies in sera from SARS patients (sera 1a, 1b, 2, 6, 37, 62, London, SARS-yellow, SARS-green); assay type: binding, human
Entries and their Binding of serum London to looped/cyclic peptide (PEPSCAN-ELISA)
# respond with the number and nothing more

In the examples that follow, each entry is paired with its recorded Binding of serum London to looped/cyclic peptide (PEPSCAN-ELISA).
INSERT INTO results (primarysequence, measvalue) VALUES
  ('QSATKIIALNKRWQL', 0.4),
  ('PLQASLPFGWLVIGV', 0.2),
  ('SKNPLLYDANYFVCW', 0.2),
  ('LNKRWQLALYKGFQF', 0.3),
  ('AFLAVFQSATKIIAL', 1.6),
  ('SHLLLVAAGMEAQFL', 0.1),
  ('IMRCWLCWKCKSKNP', 0.1),
  ('TATIPLQASLPFGWL', 0.3);

Which Binding of serum London to looped/cyclic peptide (PEPSCAN-ELISA) value is on record for `YLYALIYFLQCINAC` ?
0.2

Input `QFLYLYALIYFLQCI`
0.2

Input `FLQCINACRIIMRCW`
1.0

Input `IIALNKRWQLALYKG`
0.4

---

test system: rabbit serum obtained by immunizing a rabbit with the SARS-CoV strain Frankfurt 1; assay type: binding; set-up: unit not given here
Yes means recorded Rabbit serum linear peptides is 0.2 or above; No means it is below 0.2.

These solved cases illustrate the format of a correct answer.
INSERT INTO results (primarysequence, classlabel) VALUES
  ('ELYHYQECVRGTTVL', 'Yes'),
  ('EITVATSRTLSYYKL', 'Yes'),
  ('KLVFLWLLWPVTLAC', 'No'),
  ('LVFLWLLWPVTLACF', 'Yes');

Has `VIGFLFLAWIMLLQF` a recorded Rabbit serum linear peptides greater than or equal to 0.2?
Yes

Input `GNTYSTAWLCALGKV`
Yes

Input `AMACIVGLMWLSYFV`
Yes
